- Assay system: ER-LBD H524G (Homo sapiens, UniProt P03372, H524G)
- Assay method text: ER-LBD H524G transactivation, cell-based reporter gene assay
- Setup conditions: Table 3; read-out: EC50 ± STDEV
pEC50: −log10 of the molar value.
Attribute measured: pEC50

>>> result("C/C(=C(/c1ccc(O)cc1)c1ccc(OCCN(C)C)cc1)c1ccc(N2CCOCC2)cc1 [LBF580]")
"≥ 7.60"

----------
- Assay system: wild-type ER (Homo sapiens)
- Assay method text: Inhibition of E2 activity on wild-type ER, COS-7 cells with pHEGO and ERE luciferase reporter
- Setup conditions: IC50 ± STDEV, pHEGO and pERETkLuc, E2 (3 nM) + 0.1 to 1000 nM compound
pIC50: −log10 of the molar value.
Attribute measured: pIC50

>>> numeric_result("CN(C)CCOc1ccc(/C(=C(/CC2CC3CCC2C3)c2ccccc2)c2ccc(O)cc2)cc1 (stereo not shown) [LBB938]")
6.41
>>> numeric_result("COC(=O)NC/C(=C(\\c1ccc(O)cc1)c1ccc(OCCN(C)C)cc1)c1ccccc1 [LBC081]")
6.07
>>> numeric_result("COC(=O)NC/C(=C(/c1ccc(O)cc1)c1ccc(OCCN(C)C)cc1)c1ccccc1 [LBB551]")
6.02
>>> numeric_result("C/C(=C(/c1ccc(O)cc1)c1ccc(OCCN(C)C)cc1)c1ccc(N2CCOCC2)cc1 [LBF580]")
6.60
